B1: library; numbered along this chain (parent)
chain: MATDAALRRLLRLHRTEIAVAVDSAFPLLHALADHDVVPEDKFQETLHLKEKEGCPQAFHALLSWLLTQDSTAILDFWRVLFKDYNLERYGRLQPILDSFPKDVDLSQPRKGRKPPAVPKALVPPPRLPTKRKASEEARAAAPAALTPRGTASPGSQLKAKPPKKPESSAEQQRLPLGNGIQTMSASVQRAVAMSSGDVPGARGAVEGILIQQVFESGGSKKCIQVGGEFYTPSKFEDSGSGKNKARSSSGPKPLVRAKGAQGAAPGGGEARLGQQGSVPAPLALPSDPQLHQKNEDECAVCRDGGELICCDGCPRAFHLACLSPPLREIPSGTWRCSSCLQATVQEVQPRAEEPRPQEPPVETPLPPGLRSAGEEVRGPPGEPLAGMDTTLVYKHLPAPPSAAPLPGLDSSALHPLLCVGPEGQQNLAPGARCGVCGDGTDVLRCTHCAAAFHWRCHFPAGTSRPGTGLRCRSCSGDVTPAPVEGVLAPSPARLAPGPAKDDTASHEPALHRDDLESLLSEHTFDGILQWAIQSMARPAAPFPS

Variants of: B1
Assay: AIRE transcriptional activation functional score (insulin promoter-GFP; nonsense median 0, synonymous median 1) (normalised score); higher = higher AIRE activity (more reporter activation)
Conditions: with insulin promoter-GFP reporter in HEK293
recordedEndpoint: AIRE transcriptional activation functional score
Give your answer as a number; write no unit.

A246Y	1.43
T391R	1.15
H14Y	0.888
S545Y	1.35
L146I	0.888
L370V	1.03
E375S	0.907
C311I	0.604
L417P	0.784
G178N	0.294

Ask: For the variant `S491H` , what AIRE transcriptional activation functional score is on record?
Reply: 1.42

Ask: Fill in the blank: the reported AIRE transcriptional activation functional score of `D103K` is ____.
Reply: 0.633

Ask: Entry `T130I` : reported AIRE transcriptional activation functional score = ?
Reply: 1.05

Ask: What value of measured AIRE transcriptional activation functional score is listed for `Q57N` ?
Reply: -0.0973

Ask: If you can, please state the reported AIRE transcriptional activation functional score value of `K131F` .
Reply: 0.0637

Ask: Given the variant `A373V` , what is its reported AIRE transcriptional activation functional score?
Reply: 0.766

Ask: Entry `T524C` : reported AIRE transcriptional activation functional score = ?
Reply: 1.47

Ask: Which measured AIRE transcriptional activation functional score value corresponds to `G242T` ?
Reply: -0.775
